- Assay explanation: solvent given as SMILES
- Test parameters: in CCCCCCCCCCO
Attribute measured: absorption maximum (nm)
Write the number in nm without appending the unit.

Consider the worked cases shown below.
C(=C\c1cccc2ccccc12)/c1ccc(-c2nnc(-c3ccc(-c4cc5ccccc5s4)cc3)o2)cc1    360
CCC1=C(C)C2=C(C)c3c(C)c(CC)c(C)n3[B-](F)(F)[N+]2=C1C    521.8
Cc1ccc(Nc2ccc(Nc3ccc(C)cc3)c3c2C(=O)c2ccccc2C3=O)cc1    644

Ask: Which absorption maximum reading was recorded for the compound `FC(F)(F)c1ccc(/C=C/c2ccc(-c3nnc(-c4ccc(-c5cc6ccccc6s5)cc4)o3)cc2)cc1` ?
Reply: 340

Ref: the Deep4Chem optical property database
